Origin of values: paper PMC2774616

# measured-on: human TrkC (Homo sapiens)
# Construct: Full length human TRKA, TRKB and TRKC cDNAs were synthesized by Blue Heron Biotechnology; expressed in transfected cells
# Sequence (Q16288 32-825 isoform Q16288-3 limits assumed): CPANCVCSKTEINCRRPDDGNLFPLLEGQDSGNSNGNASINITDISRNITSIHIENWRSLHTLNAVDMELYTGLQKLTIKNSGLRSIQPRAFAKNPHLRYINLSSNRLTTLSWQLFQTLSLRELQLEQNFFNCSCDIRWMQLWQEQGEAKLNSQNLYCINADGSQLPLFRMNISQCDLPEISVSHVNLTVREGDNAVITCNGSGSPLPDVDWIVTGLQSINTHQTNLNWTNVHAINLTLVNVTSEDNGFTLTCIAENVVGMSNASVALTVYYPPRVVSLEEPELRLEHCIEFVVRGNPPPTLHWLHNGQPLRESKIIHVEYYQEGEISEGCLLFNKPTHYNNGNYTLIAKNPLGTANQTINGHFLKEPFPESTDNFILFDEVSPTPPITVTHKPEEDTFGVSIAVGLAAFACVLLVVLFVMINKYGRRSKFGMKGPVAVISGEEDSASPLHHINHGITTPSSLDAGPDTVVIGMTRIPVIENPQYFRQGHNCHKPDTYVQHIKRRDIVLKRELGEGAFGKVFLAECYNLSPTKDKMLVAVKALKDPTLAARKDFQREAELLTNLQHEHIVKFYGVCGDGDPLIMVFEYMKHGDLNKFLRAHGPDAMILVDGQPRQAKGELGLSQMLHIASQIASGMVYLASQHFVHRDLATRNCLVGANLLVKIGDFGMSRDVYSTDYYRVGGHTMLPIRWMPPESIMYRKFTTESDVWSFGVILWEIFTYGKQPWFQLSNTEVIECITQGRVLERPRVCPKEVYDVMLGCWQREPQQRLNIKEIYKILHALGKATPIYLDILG
# test: Inhibition of NT-3-induced beta-lactamase activity in TrkC-NFAT-bla CHO-K1 cells
# Assay type: cell-based
# experimental-conditions: 30 min pretreatment, NT-3 at EC80 0.72 nM, 5 h; read-out: IC50, TrkC, NT-3
quantity: pIC50
# pIC50 = -log10(concentration in molar units)

Consider CC(C)(C)c1cc(/C=C(\C#N)C(N)=S)cc(C(C)(C)C)c1O [AG879] . Its measured pIC50 is 5.88

Value of pIC50 reported for the compound COC(=O)[C@@]1(O)C[C@H]2O[C@]1(C)n1c3ccccc3c3c4c(c5c6ccccc6n2c5c31)C(=O)NC4 [K252a] is 7.52
